Test system: Setaria viridis (SETVI)
Experiment Summary: A. Herbicidal pre-emergence efficacy, SETVI
Type: in vivo
Condition: dosage 320 g/ha
Description: Seeds of mono- and dicotyledonous weed plants were placed in plastic pots in sandy loam soil (doubly sown with one species each of mono- or dicotyledonous weed plants per pot) and covered with soil. […] After about 3 weeks, the efficacy of the preparations was scored visually in comparison with untreated controls as percentages. […]
Measured Metric: Pre-emergence efficacy against SETVI (%)

[[record]]
molecule = "CCCCCS(=O)(=O)Oc1ccccc1Oc1ncc(Cl)cn1 [Example I-24]"
measured_metric = "Pre-emergence efficacy against SETVI"
readout_number = 100

[[record]]
molecule = "O=S(=O)(CCCCCl)Oc1ccccc1Oc1ncc(Cl)cn1 [Example I-15]"
measured_metric = "Pre-emergence efficacy against SETVI"
readout_number = 100

[[record]]
molecule = "O=S(=O)(CCCC(F)(F)F)Oc1c(F)cccc1Oc1ncc(F)cn1 [Example I-42]"
measured_metric = "Pre-emergence efficacy against SETVI"
readout_number = 100

[[record]]
molecule = "O=S(=O)(CCCCl)Oc1c(F)cccc1Oc1ncc(Cl)cn1 [Example I-14]"
measured_metric = "Pre-emergence efficacy against SETVI"
readout_number = 100

[[record]]
molecule = "N#Cc1cccc(Oc2ncc(Cl)cn2)c1OS(=O)(=O)CCCCl [Example I-80]"
measured_metric = "Pre-emergence efficacy against SETVI"
readout_number = 90

[[record]]
molecule = "CS(=O)(=O)Oc1ccccc1Oc1ncc(Cl)cn1 [Example I-1]"
measured_metric = "Pre-emergence efficacy against SETVI"
readout_number = 90

[[record]]
molecule = "O=S(=O)(CC1CC1(Cl)Cl)Oc1c(Br)cccc1Oc1ncc(Cl)cn1 (stereo not shown) [Example I-77]"
measured_metric = "Pre-emergence efficacy against SETVI"
readout_number = 90

[[record]]
molecule = "O=S(=O)(CCC(F)(F)F)Oc1c(F)cccc1Oc1ncc(Cl)cn1 [Example I-48]"
measured_metric = "Pre-emergence efficacy against SETVI"
readout_number = 90

[[record]]
molecule = "O=S(=O)(CCC(F)(F)F)Oc1c(Cl)cccc1Oc1ncc(Br)cn1 [Example I-32]"
measured_metric = "Pre-emergence efficacy against SETVI"
readout_number = 90

[[record]]
molecule = "O=S(=O)(CCC(F)(F)F)Oc1c(Cl)cccc1Oc1ncc(Cl)cn1 [Example I-38]"
measured_metric = "Pre-emergence efficacy against SETVI"
readout_number = 100

[[record]]
molecule = "O=S(=O)(CCCCl)Oc1ccccc1Oc1ccc(Cl)cn1 [Example I-27]"
measured_metric = "Pre-emergence efficacy against SETVI"
readout_number = 100

[[record]]
molecule = "CCS(=O)(=O)Oc1ccccc1Oc1ncc(Cl)cn1 [Example I-16]"
measured_metric = "Pre-emergence efficacy against SETVI"
readout_number = 100

[[record]]
molecule = "N#Cc1cccc(Oc2ncc(Cl)cn2)c1OS(=O)(=O)CC1CC(F)(F)C1 [Example I-79]"
measured_metric = "Pre-emergence efficacy against SETVI"
readout_number = 90

[[record]]
molecule = "Cc1cccc(Oc2ncc(F)cn2)c1OS(=O)(=O)CCCC(F)(F)F [Example I-46]"
measured_metric = "Pre-emergence efficacy against SETVI"
readout_number = 100

[[record]]
molecule = "O=S(=O)(CC1CC(F)(F)C1)Oc1c(F)cccc1Oc1ncc(Cl)cn1 [Example I-53]"
measured_metric = "Pre-emergence efficacy against SETVI"
readout_number = 100

[[record]]
molecule = "CCCS(=O)(=O)Oc1ccccc1Oc1ncc(Cl)cn1 [Example I-3]"
measured_metric = "Pre-emergence efficacy against SETVI"
readout_number = 100

[[record]]
molecule = "O=S(=O)(CCC1CC1)Oc1c(F)cccc1Oc1ncc(Cl)cn1 [Example I-55]"
measured_metric = "Pre-emergence efficacy against SETVI"
readout_number = 100

[[record]]
molecule = "O=S(=O)(Oc1ccccc1Oc1ncc(Cl)cn1)C1CCCC1 [Example I-19]"
measured_metric = "Pre-emergence efficacy against SETVI"
readout_number = 90

[[record]]
molecule = "O=S(=O)(CC1CC1(Cl)Cl)Oc1c(F)cccc1Oc1ncc(Cl)cn1 (stereo not shown) [Example I-57]"
measured_metric = "Pre-emergence efficacy against SETVI"
readout_number = 100


====

System: Echinochloa crus-galli (ECHCG)
Experiment Summary: B. Herbicidal post-emergence efficacy, ECHCG
Assay type: in vivo
Condition: 1280 g/ha, rated visually after about 3 weeks
Measured Metric: Post-emergence efficacy against ECHCG in % (%)

[[record]]
compound = "N#Cc1cccc(Oc2ncc(Cl)cn2)c1OS(=O)(=O)CCCCl [Example I-80]"
readout_number = 100

[[record]]
compound = "O=S(=O)(CCCCCl)Oc1ccccc1Oc1ncc(Cl)cn1 [Example I-15]"
readout_number = 100

[[record]]
compound = "O=S(=O)(CCCC(F)(F)F)Oc1c(F)cccc1Oc1ncc(Cl)cn1 [Example I-49]"
readout_number = 90

[[record]]
compound = "Cc1cccc(Oc2ncc(Cl)cn2)c1OS(=O)(=O)CCCC(F)(F)F [Example I-28]"
readout_number = 100

[[record]]
compound = "Cc1cccc(Oc2ncc(Cl)cn2)c1OS(=O)(=O)CC1CC(F)(F)C1 [Example I-74]"
readout_number = 100

[[record]]
compound = "O=S(=O)(CCCC(F)(F)F)Oc1c(Br)cccc1Oc1ncc(Cl)cn1 [Example I-30]"
readout_number = 90

[[record]]
compound = "Cc1cccc(Oc2ncc(Br)cn2)c1OS(=O)(=O)CCCC(F)(F)F [Example I-35]"
readout_number = 90

[[record]]
compound = "O=S(=O)(CCC(F)(F)F)Oc1c(Br)cccc1Oc1ncc(F)cn1 [Example I-43]"
readout_number = 90

[[record]]
compound = "CCCCCS(=O)(=O)Oc1ccccc1Oc1ncc(Cl)cn1 [Example I-24]"
readout_number = 100

[[record]]
compound = "Cc1cccc(Oc2ncc(F)cn2)c1OS(=O)(=O)CCCC(F)(F)F [Example I-46]"
readout_number = 100

[[record]]
compound = "O=S(=O)(CCCC(F)(F)F)Oc1ccccc1Oc1ccc(Cl)cn1 [Example I-26]"
readout_number = 90

[[record]]
compound = "O=S(=O)(CCC(F)(F)F)Oc1c(F)cccc1Oc1ncc(Cl)cn1 [Example I-48]"
readout_number = 90

[[record]]
compound = "O=S(=O)(CCCCl)Oc1ccccc1Oc1ncc(Cl)cn1 [Example I-2]"
readout_number = 100

[[record]]
compound = "CCS(=O)(=O)Oc1ccccc1Oc1ncc(Cl)cn1 [Example I-16]"
readout_number = 90

[[record]]
compound = "O=S(=O)(CCCCl)Oc1cccc(F)c1Oc1ncc(Cl)cn1 [Example I-13]"
readout_number = 90

[[record]]
compound = "O=S(=O)(CCCC(F)(F)F)Oc1c(F)cccc1Oc1ncc(F)cn1 [Example I-42]"
readout_number = 100

[[record]]
compound = "O=S(=O)(CC1CC1(Cl)Cl)Oc1c(F)cccc1Oc1ncc(Cl)cn1 (stereo not shown) [Example I-57]"
readout_number = 90

[[record]]
compound = "O=S(=O)(CCCCl)Oc1ccccc1Oc1ncc(F)cn1 [Example I-5]"
readout_number = 100

[[record]]
compound = "O=S(=O)(CCCC(F)(F)F)Oc1c(Cl)cccc1Oc1ncc(Br)cn1 [Example I-34]"
readout_number = 90


====

Test system: Echinochloa crus-galli (ECHCG)
Experiment Summary: B. Herbicidal post-emergence efficacy, ECHCG
Assay type: in vivo
Condition: 1280 g/ha, rated visually after about 3 weeks
Measured Metric: Post-emergence efficacy against ECHCG in % (%)

[[record]]
compound = "O=S(=O)(CCC1CC1)Oc1c(F)cccc1Oc1ncc(Cl)cn1"
readout_number = 90

[[record]]
compound = "O=S(=O)(CCC1CC1(Cl)Cl)Oc1c(F)cccc1Oc1ncc(Cl)cn1 (centres unmarked)"
readout_number = 90

[[record]]
compound = "O=S(=O)(CCCC(F)(F)F)Oc1ccccc1Oc1ncc(Cl)cn1"
readout_number = 100

[[record]]
compound = "O=S(=O)(CCCC(F)(F)C(F)(F)F)Oc1c(F)cccc1Oc1ncc(Cl)cn1"
readout_number = 100

[[record]]
compound = "Cc1cccc(Oc2ncc(Br)cn2)c1OS(=O)(=O)CCC(F)(F)F"
readout_number = 100


====

Reported Pre-emergence efficacy against AMARE in % by item:
System: Amaranthus retroflexus (AMARE)
Experiment Summary: A. Herbicidal pre-emergence efficacy, AMARE
Assay type: in vivo
Condition: 80 g/ha
Measured Metric: Pre-emergence efficacy against AMARE in % (%)

[[record]]
compound = "CS(=O)(=O)Oc1ccccc1Oc1ncc(Cl)cn1"
tgt = "Amaranthus retroflexus (AMARE)"
readout_number = 100

[[record]]
compound = "Cc1cccc(Oc2ncc(Br)cn2)c1OS(=O)(=O)CCC(F)(F)F"
tgt = "Amaranthus retroflexus (AMARE)"
readout_number = 90

[[record]]
compound = "O=S(=O)(CCCC(F)(F)F)Oc1c(Br)cccc1Oc1ncc(F)cn1"
tgt = "Amaranthus retroflexus (AMARE)"
readout_number = 100

[[record]]
compound = "Cc1cccc(Oc2ncc(Cl)cn2)c1OS(=O)(=O)CCC(F)(F)F"
tgt = "Amaranthus retroflexus (AMARE)"
readout_number = 90

[[record]]
compound = "Cc1cccc(Oc2ncc(F)cn2)c1OS(=O)(=O)CCC(F)(F)F"
tgt = "Amaranthus retroflexus (AMARE)"
readout_number = 90

[[record]]
compound = "CCC(C)S(=O)(=O)Oc1ccccc1Oc1ncc(Cl)cn1 (stereo not drawn)"
tgt = "Amaranthus retroflexus (AMARE)"
readout_number = 90

[[record]]
compound = "O=S(=O)(Oc1ccccc1Oc1ncc(Cl)cn1)C1CC1"
tgt = "Amaranthus retroflexus (AMARE)"
readout_number = 100

[[record]]
compound = "N#Cc1cccc(Oc2ncc(Cl)cn2)c1OS(=O)(=O)CCCCl"
tgt = "Amaranthus retroflexus (AMARE)"
readout_number = 90

[[record]]
compound = "O=S(=O)(CC1CC1(Cl)Cl)Oc1c(F)cccc1Oc1ncc(Cl)cn1 (stereo not drawn)"
tgt = "Amaranthus retroflexus (AMARE)"
readout_number = 100

